# pKd per entry
- Target or system: TakP (Cereibacter sphaeroides)
- Construct: His6 (C); made in house; host or cells: E. coli BL21
- Sequence (Q3J1R2 27-365): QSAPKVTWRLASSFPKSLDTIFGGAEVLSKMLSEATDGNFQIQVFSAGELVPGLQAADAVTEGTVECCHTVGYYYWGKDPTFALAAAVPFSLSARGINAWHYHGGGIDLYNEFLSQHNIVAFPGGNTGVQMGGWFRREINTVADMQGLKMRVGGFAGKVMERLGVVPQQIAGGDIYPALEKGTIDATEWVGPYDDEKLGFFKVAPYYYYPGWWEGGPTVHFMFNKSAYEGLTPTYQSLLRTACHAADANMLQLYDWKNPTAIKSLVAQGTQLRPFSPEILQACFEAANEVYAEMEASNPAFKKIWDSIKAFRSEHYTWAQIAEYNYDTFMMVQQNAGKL
- Experimental protocol: Tryptophan fluorescence quenching titration of ligand binding to TakP
- Set-up: species or system Rhodobacter sphaeroides
pKd here is simply -log10 of the concentration when that concentration is written in mol/L.

Consider the worked cases shown below.
CCC(=O)C(=O)O [Oxobutyrate, oxobutyrate]	7.37
CCCC(=O)C(=O)O [Oxovalerate, oxovalerate]	7.74
CC(=O)C(=O)O [Pyruvate, pyruvate]	6.57

Next compound, pKd to be filled in.
Return reported pKd; argument: CC(C)CC(=O)C(=O)O [4-Methyl-2-Oxovalerate] 6.14
